test system: SW-620; assay: Growth inhibition of human SW620 cells after 48 hrs by sulforhodamine B assay; format: functional; details: SW-620, 48 h, read-out: LC50 (the source's name)
Here, each record is paired with measured CC50 data.

SMILES_STRUCTURE	READOUT_QUALIFIER	CC50, µM
COc1cc(-c2nn(-c3cccc(NC(=O)c4cccc(C(F)(F)F)c4)c3)cc2-c2ccncc2)ccc1Cl	>	50
O=C(Nc1cccc(-n2cc(-c3ccncc3)c(-c3ccc(Cl)c(O)c3)n2)c1)Nc1ccc(Cl)c(C(F)(F)F)c1	>	32.5
COc1cc(-c2nn(-c3cccc(NC(=O)Nc4cccc(C(F)(F)F)c4)c3)cc2-c2ccncc2)ccc1Cl	=	50
COc1cc(-c2nn(-c3cccc(NC(=O)Nc4cc(C(F)(F)F)cc(C(F)(F)F)c4)c3)cc2-c2ccncc2)ccc1Cl	=	4.87
O=C(Nc1cccc(-n2cc(-c3ccncc3)c(-c3ccc(Cl)c(O)c3)n2)c1)Nc1ccc(Cl)c(Cl)c1	>	32.5

---

system: SK-MEL-2; assay: Growth inhibition of human SK-MEL-2 cells assessed as cell growth at 10 uM after 48 hrs by sulforhodamine B assay; assay type: functional; conditions: SK-MEL-2, 48 h, read-out: Activity
OBSERVABLE: growth at 10 µM

SMILES_STRUCTURE	STUDY_TARGET	VALUE_REPORTED
COc1cc(-c2nn(-c3cccc(NC(=O)Nc4ccccc4)c3)cc2-c2ccncc2)ccc1Cl	SK-MEL-2	77%
O=C(Nc1cccc(-n2cc(-c3ccncc3)c(-c3ccc(Cl)c(O)c3)n2)c1)Nc1ccc(Cl)c(Cl)c1	SK-MEL-2	-25.4%
O=C(Nc1cccc(-n2cc(-c3ccncc3)c(-c3ccc(Cl)c(O)c3)n2)c1)Nc1cccc(C(F)(F)F)c1	SK-MEL-2	-25.6%
COc1cc(-c2nn(-c3cccc(NC(=O)c4ccccc4)c3)cc2-c2ccncc2)ccc1Cl	SK-MEL-2	-42.5%

---

system: HCT-15; test: Growth inhibition of human HCT15 cells after 48 hrs by sulforhodamine B assay; assay type: functional; details: HCT-15, 48 h
Here, each record is paired with measured TGI data.

SMILES_STRUCTURE	STUDY_TARGET	TGI
COc1cc(-c2nn(-c3cccc(NC(=O)c4ccc(Cl)c(C(F)(F)F)c4)c3)cc2-c2ccncc2)ccc1Cl	HCT-15	> 32.5 µM
O=C(Nc1cccc(-n2cc(-c3ccncc3)c(-c3ccc(Cl)c(O)c3)n2)c1)Nc1cccc(C(F)(F)F)c1	HCT-15	> 32.5 µM
COc1cc(-c2nn(-c3cccc(NC(=O)c4ccc(N5CCOCC5)c(C(F)(F)F)c4)c3)cc2-c2ccncc2)ccc1Cl	HCT-15	> 100 µM
COc1cc(-c2nn(-c3cccc(NC(=O)Nc4ccc(Cl)c(Cl)c4)c3)cc2-c2ccncc2)ccc1Cl	HCT-15	> 50 µM

---

test system: HOP-92; test: Growth inhibition of human HOP92 cells after 48 hrs by sulforhodamine B assay; assay type: functional, cell-based; details: HOP-92, 48 h
The label depends only on TGI: MET if it is at least 2 µM, NOT MET if it is smaller.

SMILES_STRUCTURE	STUDY_TARGET	DISCRETE_LABEL
COc1cc(-c2nn(-c3cccc(NC(=O)Nc4cccc(C(F)(F)F)c4)c3)cc2-c2ccncc2)ccc1Cl	HOP-92	NOT MET
O=C(Nc1cccc(-n2cc(-c3ccncc3)c(-c3ccc(Cl)c(O)c3)n2)c1)Nc1cc(C(F)(F)F)cc(C(F)(F)F)c1	HOP-92	NOT MET
COc1cc(-c2nn(-c3cccc(NC(=O)c4ccc(N5CCOCC5)c(C(F)(F)F)c4)c3)cc2-c2ccncc2)ccc1Cl	HOP-92	NOT MET
COc1cc(-c2nn(-c3cccc(NC(=O)c4ccccc4)c3)cc2-c2ccncc2)ccc1Cl	HOP-92	MET
COc1cc(-c2nn(-c3cccc(NC(=O)c4cccc(C(F)(F)F)c4)c3)cc2-c2ccncc2)ccc1Cl	HOP-92	MET
COc1cc(-c2nn(-c3cccc(NC(=O)Nc4cc(C(F)(F)F)cc(C(F)(F)F)c4)c3)cc2-c2ccncc2)ccc1Cl	HOP-92	NOT MET
O=C(Nc1cccc(-n2cc(-c3ccncc3)c(-c3ccc(Cl)c(O)c3)n2)c1)Nc1ccc(Cl)c(C(F)(F)F)c1	HOP-92	NOT MET

---

Here, each record is paired with measured CC50 data.
system: A498; experiment: Growth inhibition of human A498 cells after 48 hrs by sulforhodamine B assay; assay type: functional, cell-based; settings: A498, 48 h, read-out: LC50 (the source's name)

SMILES_STRUCTURE	CC50
COc1cc(-c2nn(-c3cccc(NC(=O)Nc4ccc(Cl)c(C(F)(F)F)c4)c3)cc2-c2ccncc2)ccc1Cl	> 32.5 µM
O=C(Nc1cccc(-n2cc(-c3ccncc3)c(-c3ccc(Cl)c(O)c3)n2)c1)Nc1cc(C(F)(F)F)cc(C(F)(F)F)c1	16 µM
O=C(Nc1cccc(-n2cc(-c3ccncc3)c(-c3ccc(Cl)c(O)c3)n2)c1)Nc1cccc(C(F)(F)F)c1	> 32.5 µM
COc1cc(-c2nn(-c3cccc(NC(=O)c4ccccc4)c3)cc2-c2ccncc2)ccc1Cl	> 100 µM
O=C(Nc1cccc(-n2cc(-c3ccncc3)c(-c3ccc(Cl)c(O)c3)n2)c1)Nc1ccc(Cl)c(Cl)c1	> 32.5 µM
COc1cc(-c2nn(-c3cccc(NC(=O)Nc4cccc(C(F)(F)F)c4)c3)cc2-c2ccncc2)ccc1Cl	> 50 µM

---

system: MDA-MB-231; assay: Growth inhibition of human MDA-MB-231 cells after 48 hrs by sulforhodamine B assay; assay type: functional; settings: MDA-MB-231, 48 h
OBSERVABLE: GI50 (nM)

SMILES_STRUCTURE	VALUE_REPORTED
COc1cc(-c2nn(-c3cccc(NC(=O)c4ccc(N5CCOCC5)c(C(F)(F)F)c4)c3)cc2-c2ccncc2)ccc1Cl	299
COc1cc(-c2nn(-c3cccc(NC(=O)Nc4cc(C(F)(F)F)cc(C(F)(F)F)c4)c3)cc2-c2ccncc2)ccc1Cl	664
COc1cc(-c2nn(-c3cccc(NC(=O)Nc4cccc(C(F)(F)F)c4)c3)cc2-c2ccncc2)ccc1Cl	811
O=C(Nc1cccc(-n2cc(-c3ccncc3)c(-c3ccc(Cl)c(O)c3)n2)c1)Nc1cc(C(F)(F)F)cc(C(F)(F)F)c1	739

---

tested on: OVCAR-3; experiment: Growth inhibition of human OVCAR3 cells after 48 hrs by sulforhodamine B assay; format: functional, cell-based; conditions: OVCAR-3, 48 h, read-out: LC50 (the source's name)
Here, each record is paired with measured CC50 data.
OBSERVABLE: CC50

SMILES_STRUCTURE	STUDY_TARGET	VALUE_REPORTED
O=C(Nc1cccc(-n2cc(-c3ccncc3)c(-c3ccc(Cl)c(O)c3)n2)c1)Nc1cccc(C(F)(F)F)c1	OVCAR-3	> 32.5 µM
COc1cc(-c2nn(-c3cccc(NC(=O)Nc4ccc(Cl)c(Cl)c4)c3)cc2-c2ccncc2)ccc1Cl	OVCAR-3	> 50 µM
COc1cc(-c2nn(-c3cccc(NC(=O)c4cccc(C(F)(F)F)c4)c3)cc2-c2ccncc2)ccc1Cl	OVCAR-3	> 50 µM
COc1cc(-c2nn(-c3cccc(NC(=O)Nc4ccc(Cl)c(C(F)(F)F)c4)c3)cc2-c2ccncc2)ccc1Cl	OVCAR-3	> 32.5 µM

---

Here, each record is paired with measured growth at 10 µM data.
tested on: RPMI-8226; assay: Growth inhibition of human RPMI8226 cells assessed as cell growth at 10 uM after 48 hrs by sulforhodamine B assay; format: functional; details: RPMI-8226, 48 h, read-out: Activity

SMILES_STRUCTURE	UNITS_OF_MEASURE	growth at 10 µM
O=C(Nc1cccc(-n2cc(-c3ccncc3)c(-c3ccc(Cl)c(O)c3)n2)c1)Nc1ccc(Cl)c(Cl)c1	%	7.89
Cc1cc(C(=O)Nc2cccc(-n3cc(-c4ccncc4)c(-c4ccc(Cl)c(O)c4)n3)c2)ccc1Br	%	92.1
COc1cc(-c2nn(-c3cccc(NC(=O)c4ccc(Br)c(C)c4)c3)cc2-c2ccncc2)ccc1Cl	%	64.7
COc1cc(-c2nn(-c3cccc(NC(=O)Nc4ccc(Cl)c(Cl)c4)c3)cc2-c2ccncc2)ccc1Cl	%	-11.6

---

Here, each record is paired with measured GI50 data.
tested on: TK-10; test: Growth inhibition of human TK10 cells after 48 hrs by sulforhodamine B assay; assay type: functional; settings: TK-10, 48 h
OBSERVABLE: GI50 (nM)

SMILES_STRUCTURE	STUDY_TARGET	VALUE_REPORTED
O=C(Nc1cccc(-n2cc(-c3ccncc3)c(-c3ccc(Cl)c(O)c3)n2)c1)Nc1ccc(Cl)c(Cl)c1	TK-10	1910
COc1cc(-c2nn(-c3cccc(NC(=O)Nc4ccc(Cl)c(Cl)c4)c3)cc2-c2ccncc2)ccc1Cl	TK-10	1430
O=C(Nc1cccc(-n2cc(-c3ccncc3)c(-c3ccc(Cl)c(O)c3)n2)c1)Nc1cccc(C(F)(F)F)c1	TK-10	2120
COc1cc(-c2nn(-c3cccc(NC(=O)c4ccccc4)c3)cc2-c2ccncc2)ccc1Cl	TK-10	7000
